Experiment: Biodistribution in BALB/c nu/nu mice bearing PC-3 xenografts
Format: in vivo
Conditions: female, BALB/c nu/nu, mouse, tumor (PC-3 xenograft), iv, 50 pmol, total radioactivity; 2 h p.i., i.v.; PC-3 xenograft; read-out: Radionuclide concentration, Tumor
Description: Female BALB/c nu/nu mice of 18–22 g weight were used in the study. All procedures with animals were conducted in accordance with the EU Directive 2010/63/EU for animal experiments and Swedish national legislation concerning the protection of laboratory animals. […] For tumor inoculation, 8·10^6 PC-3 cells in 100 µL PBS were injected subcutaneously into the right hind leg of mice. Mouse weight and tumor size were measured every 2–3 days, and tumor volume was estimated by ellipsoid approximation. […]
Starred links: 1 amine or outer side, 2 acyl side, 3 side chain; linkers in the order of their positions; H or OH if unused. Non-standard residues stand in square brackets, D forms with d. Residues, ends and D or L forms follow the SMILES beside them. *: point of attachment. NOTA = O=C(O)CN1CCN(CC(=O)O)CCN(CC(=O)*)CC1; Sta = CC(C)C[C@H](N)[C@@H](O)CC(=O)O; X2 = O=C(COc1cccc(CN[*:1])c1)[*:2]; X1 = O=C(Cc1ccccc1CCN[*:1])[*:2]; X3 = O=C(COc1ccccc1CN[*:1])[*:2]
Listing: tissue uptake at 2 h of selected compounds
measured metric: tissue uptake at 2 h (%ID/g)

[[record]]
compound = "CC(=O)N[C@@H](CCCCNC(=O)CN1CCN(CC(=O)O)CCN(CC(=O)O)CC1)C(=O)NCc1ccccc1OCC(=O)N[C@H](Cc1ccccc1)C(=O)N[C@@H](CCC(N)=O)C(=O)N[C@@H](Cc1c[nH]c2ccccc12)C(=O)N[C@@H](C)C(=O)N[C@H](C(=O)NCC(=O)N[C@@H](Cc1c[nH]cn1)C(=O)N[C@@H](CC(C)C)[C@@H](O)CC(=O)N[C@@H](CC(C)C)C(N)=O)C(C)C [[^68Ga]Ga-NOTA-oMA-RM26, metal not drawn] (Ac-K(NOTA)[X3][dF]QWAVGH[Sta]L-NH2)"
assay_result = 10.2

[[record]]
compound = "CC(=O)N[C@@H](CCCCNC(=O)CN1CCN(CC(=O)O)CCN(CC(=O)O)CC1)C(=O)NCc1cccc(OCC(=O)N[C@H](Cc2ccccc2)C(=O)N[C@@H](CCC(N)=O)C(=O)N[C@@H](Cc2c[nH]c3ccccc23)C(=O)N[C@@H](C)C(=O)N[C@H](C(=O)NCC(=O)N[C@@H](Cc2c[nH]cn2)C(=O)N[C@@H](CC(C)C)[C@@H](O)CC(=O)N[C@@H](CC(C)C)C(N)=O)C(C)C)c1 [[^68Ga]Ga-NOTA-mMA-RM26, metal not drawn] (Ac-K(NOTA)[X2][dF]QWAVGH[Sta]L-NH2)"
assay_result = 12.3

[[record]]
compound = "CC(=O)N[C@@H](CCCCNC(=O)CN1CCN(CC(=O)O)CCN(CC(=O)O)CC1)C(=O)NCCc1ccccc1CC(=O)N[C@H](Cc1ccccc1)C(=O)N[C@@H](CCC(N)=O)C(=O)N[C@@H](Cc1c[nH]c2ccccc12)C(=O)N[C@@H](C)C(=O)N[C@H](C(=O)NCC(=O)N[C@@H](Cc1c[nH]cn1)C(=O)N[C@@H](CC(C)C)[C@@H](O)CC(=O)N[C@@H](CC(C)C)C(N)=O)C(C)C [[^68Ga]Ga-NOTA-oET-RM26, metal not drawn] (Ac-K(NOTA)[X1][dF]QWAVGH[Sta]L-NH2)"
assay_result = 11.2


* * *

Listing: tissue uptake at 2 h of selected molecules
assay: Biodistribution in BALB/c nu/nu mice bearing PC-3 xenografts; format: in vivo; conditions: female, BALB/c nu/nu, mouse, bone, iv, 50 pmol, total radioactivity; 2 h p.i., i.v.; read-out: Radionuclide concentration, Bone
Starred links: 1 amine or outer side, 2 acyl side, 3 side chain; linkers in the order of their positions; H or OH if unused. Non-standard residues stand in square brackets, D forms with d. Residues, ends and D or L forms follow the SMILES beside them. *: point of attachment. NOTA = O=C(O)CN1CCN(CC(=O)O)CCN(CC(=O)*)CC1; Sta = CC(C)C[C@H](N)[C@@H](O)CC(=O)O; X2 = O=C(COc1cccc(CN[*:1])c1)[*:2]; X1 = O=C(Cc1ccccc1CCN[*:1])[*:2]; X3 = O=C(COc1ccccc1CN[*:1])[*:2]
measured metric: tissue uptake at 2 h

[[record]]
molecule = "CC(=O)N[C@@H](CCCCNC(=O)CN1CCN(CC(=O)O)CCN(CC(=O)O)CC1)C(=O)NCc1cccc(OCC(=O)N[C@H](Cc2ccccc2)C(=O)N[C@@H](CCC(N)=O)C(=O)N[C@@H](Cc2c[nH]c3ccccc23)C(=O)N[C@@H](C)C(=O)N[C@H](C(=O)NCC(=O)N[C@@H](Cc2c[nH]cn2)C(=O)N[C@@H](CC(C)C)[C@@H](O)CC(=O)N[C@@H](CC(C)C)C(N)=O)C(C)C)c1 [[^68Ga]Ga-NOTA-mMA-RM26, metal not drawn] (Ac-K(NOTA)[X2][dF]QWAVGH[Sta]L-NH2)"
measured_metric = "tissue uptake at 2 h"
assay_result = "0.28 %ID/g"

[[record]]
molecule = "CC(=O)N[C@@H](CCCCNC(=O)CN1CCN(CC(=O)O)CCN(CC(=O)O)CC1)C(=O)NCc1ccccc1OCC(=O)N[C@H](Cc1ccccc1)C(=O)N[C@@H](CCC(N)=O)C(=O)N[C@@H](Cc1c[nH]c2ccccc12)C(=O)N[C@@H](C)C(=O)N[C@H](C(=O)NCC(=O)N[C@@H](Cc1c[nH]cn1)C(=O)N[C@@H](CC(C)C)[C@@H](O)CC(=O)N[C@@H](CC(C)C)C(N)=O)C(C)C [[^68Ga]Ga-NOTA-oMA-RM26, metal not drawn] (Ac-K(NOTA)[X3][dF]QWAVGH[Sta]L-NH2)"
measured_metric = "tissue uptake at 2 h"
assay_result = "0.34 %ID/g"

[[record]]
molecule = "CC(=O)N[C@@H](CCCCNC(=O)CN1CCN(CC(=O)O)CCN(CC(=O)O)CC1)C(=O)NCCc1ccccc1CC(=O)N[C@H](Cc1ccccc1)C(=O)N[C@@H](CCC(N)=O)C(=O)N[C@@H](Cc1c[nH]c2ccccc12)C(=O)N[C@@H](C)C(=O)N[C@H](C(=O)NCC(=O)N[C@@H](Cc1c[nH]cn1)C(=O)N[C@@H](CC(C)C)[C@@H](O)CC(=O)N[C@@H](CC(C)C)C(N)=O)C(C)C [[^68Ga]Ga-NOTA-oET-RM26, metal not drawn] (Ac-K(NOTA)[X1][dF]QWAVGH[Sta]L-NH2)"
measured_metric = "tissue uptake at 2 h"
assay_result = "0.44 %ID/g"

